Recorded pIC50 for the following molecules
# TARGET_ENTITY: integrin linked kinase (ILK1), full-length recombinant GST-ILK (Homo sapiens, UniProt Q13418)
# Construct: The target integrin linked kinase is a full-length recombinant protein expressed in sF9 insect cells by baculovirus infection; virus amplified in Sf9 cells, protein expressed in Hi5 insect cells
# Sequence (Q13418 whole entry): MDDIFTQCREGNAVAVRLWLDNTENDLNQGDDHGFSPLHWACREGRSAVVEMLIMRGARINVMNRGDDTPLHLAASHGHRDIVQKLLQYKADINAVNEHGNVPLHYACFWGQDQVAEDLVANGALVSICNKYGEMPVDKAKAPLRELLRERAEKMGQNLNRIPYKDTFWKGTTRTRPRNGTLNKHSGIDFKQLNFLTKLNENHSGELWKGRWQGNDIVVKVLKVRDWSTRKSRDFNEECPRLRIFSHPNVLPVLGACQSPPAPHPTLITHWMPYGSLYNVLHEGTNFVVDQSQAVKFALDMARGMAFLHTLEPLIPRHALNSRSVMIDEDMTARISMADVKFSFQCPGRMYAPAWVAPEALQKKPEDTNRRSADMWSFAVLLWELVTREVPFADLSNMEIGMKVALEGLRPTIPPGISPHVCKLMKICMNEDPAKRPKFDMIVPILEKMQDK
# TEST_SUMMARY: Integrin linked kinase inhibition assay (radioactive phosphate incorporation, scintillation counting)
pIC50: −log10 of the molar value.

Worked examples, 3 molecules total:
# COMPOUND_STRING, pIC50
data = [
    ("CN(c1ccccc1)c1snnc1C(N)=O", "< 4.70"),
    ("CCOC(=O)Nc1snnc1C(N)=O", "< 4.70"),
    ("NC(=O)c1nnsc1NC1CCCCC1", "< 4.70"),
]

I'd like to know its pIC50. The molecule in question is NC(=O)c1nnsc1NCc1ccccc1
< 4.70

I'd like to know its pIC50. The molecule in question is NC(=O)c1nnsc1NC(=O)c1ccccc1
< 4.70

I'd like to know its pIC50. The molecule in question is NC(=O)c1nnsc1Nc1ccc(Br)cc1
< 4.70

I'd like to know its pIC50. The molecule in question is CC(=O)NC(=O)c1nnsc1Nc1ccccc1
< 4.70

I'd like to know its pIC50. The molecule in question is NCc1nnsc1Nc1ccccc1
< 4.70

I'd like to know its pIC50. The molecule in question is CCCCCCNc1snnc1C(N)=O
< 4.70

I'd like to know its pIC50. The molecule in question is O=C(O)c1nnsc1Nc1ccccc1
< 4.70

I'd like to know its pIC50. The molecule in question is COc1ccc(Nc2snnc2C(N)=O)cc1
< 4.70

I'd like to know its pIC50. The molecule in question is NC(=O)c1nnsc1NC12CC3CC(CC(C3)C1)C2
< 4.70

I'd like to know its pIC50. The molecule in question is CCNc1snnc1C(N)=O
< 4.70

This collection of values is drawn from patent US7288556B2.
